Biological target: T1, cynomolgus monkey IL-33 expressed with a C-terminal hexahistidine tag (cynomolgus monkey)
T1 construct: also called MfIL-33-6His; Mf-IL-33-6His
T1 chain: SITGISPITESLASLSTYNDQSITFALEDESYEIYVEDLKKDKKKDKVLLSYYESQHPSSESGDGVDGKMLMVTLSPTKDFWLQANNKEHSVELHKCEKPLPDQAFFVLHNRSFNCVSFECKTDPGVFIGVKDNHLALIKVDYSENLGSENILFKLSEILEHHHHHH
Assay: BLI; captured MfIL-33-6His, mAb-1 step with Buffer
assay_endpoint: mAb-2 Binding to the Pre-complex of mAb-1 & MfIL-33-6xHis (nm)

| binder | val |
| --- | --- |
| H4H9640P (antibody, human IgG4, V domains shown, Human IgG4 Fc (H4H)) VH: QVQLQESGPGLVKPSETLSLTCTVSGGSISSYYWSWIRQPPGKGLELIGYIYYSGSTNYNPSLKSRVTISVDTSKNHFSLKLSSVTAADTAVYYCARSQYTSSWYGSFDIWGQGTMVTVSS VL: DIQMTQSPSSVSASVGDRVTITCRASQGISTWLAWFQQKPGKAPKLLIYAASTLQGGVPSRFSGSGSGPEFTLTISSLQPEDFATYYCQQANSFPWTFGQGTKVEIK | 0.33 |
| H4H9664P (antibody, human IgG4, V domains shown, Human IgG4 Fc (H4H)) VH: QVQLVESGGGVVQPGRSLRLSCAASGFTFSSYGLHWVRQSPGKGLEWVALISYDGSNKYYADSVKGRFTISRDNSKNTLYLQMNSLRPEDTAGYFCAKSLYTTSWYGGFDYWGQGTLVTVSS VL: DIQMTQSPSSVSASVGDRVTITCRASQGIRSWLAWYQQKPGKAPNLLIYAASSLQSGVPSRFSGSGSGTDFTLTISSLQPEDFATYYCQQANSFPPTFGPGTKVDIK | 0.31 |
| H4H9675P (antibody, human IgG4, V domains shown, Human IgG4 Fc (H4H)) VH: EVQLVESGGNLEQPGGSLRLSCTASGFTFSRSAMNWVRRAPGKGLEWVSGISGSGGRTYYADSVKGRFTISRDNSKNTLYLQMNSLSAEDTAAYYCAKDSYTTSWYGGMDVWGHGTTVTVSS VL: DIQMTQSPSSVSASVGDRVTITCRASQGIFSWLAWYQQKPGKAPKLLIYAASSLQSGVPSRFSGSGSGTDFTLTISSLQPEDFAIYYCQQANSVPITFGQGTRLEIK | 0.31 |

FYI, the data here is from patent US20160362487A1.
